apparent KD of MS2 coat protein overview
Test system: MS2 coat protein
protocolSummary: apparent KD of MS2 coat protein; designed switch direction (-1 OFF switch, 1 ON switch): -1; higher = weaker reporter binding
conditionParameters: input ligand: none
State the answer as a number, implicitly in nM.

* UUUUUAUAUGAAGGAUAUACUUAACAUGAGGAUCACCCAUGUGGUGUUGUGAGUGAGUGAGUUUAGUAGAAGGUCAAUGAUUUU [JMF's solution 10] (Eterna round: R96, puzzle: Exclusion NG 2) | 345

apparent KD of MS2 coat protein for CCCUCAAGCGAGGAUAUAAAUGCGCAUUCGCGGUUAGAAGGCGCUACAUGAGGAUCACCCAUGUAAUUGAAUGG [jl-ex6-4.52 ViennaUCT mod] (Eterna round: R97, puzzle: Exclusion 6) ?
58.7

Subsequent entry: AGUUGGCGAGGAUAUACAUGAGGAUCACCCAUGUGAGAGAUACUAGUGAGGUCGGUUAGUAGAAGGCGCUGACA [Mat X3R4 m16] (Eterna round: R97, puzzle: Exclusion 3)
35.5

Subsequent entry: AUAACCGAAGGAUAUAGUCGUGAGGACAUGAGGAUCACCCAUGUGUUUCAGAUAGUCCCACUAGAAGGUCGGCGUC [Eternabot (L2) Solution 29] (Eterna round: R97, puzzle: Exclusion 5)
67.2

Subsequent entry: GUUUCACAUGAGGAUCACCCAUGUGAGGAUAUGUUAUUAAUGGCGAUAGUUAUUGGUGGCAGAAGGCGCGUGAU [JR_Exc1_Sub010] (Eterna round: R97, puzzle: Exclusion 1)
50.2
